B1: Azoarcus group I ribozyme (parent)
chain: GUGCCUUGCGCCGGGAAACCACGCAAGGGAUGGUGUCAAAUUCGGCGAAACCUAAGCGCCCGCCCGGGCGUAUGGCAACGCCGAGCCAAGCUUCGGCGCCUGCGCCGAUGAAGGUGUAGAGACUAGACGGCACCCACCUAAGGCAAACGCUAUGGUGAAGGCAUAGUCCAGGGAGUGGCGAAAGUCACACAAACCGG

Variants of: B1
Assay: reverse-splicing fitness (ratio to wild type); higher = more active; in vitro selection; Mg2+ level not given
Binning scheme for reverse-splicing fitness: lower level: < 0.006; middle level: ≥ 0.006 and < 0.01; upper level: ≥ 0.01

Solved cases (3 shown):
Task: State the band of C82U A111G C169G U176A
Result: upper level

Task: State the band of C82G A120U A145U C150A C169A
Result: lower level

Task: State the band of C82A A120C C150U C169U U176A
Result: upper level

New cases:
Task: State the band of C82G A111G A145U C150U C169A U176A
Result: upper level

Task: State the band of C82U A111C A145U C150A C169U U176C
Result: upper level

Task: State the band of C82G A111U A120C A145C C150A C169U U176A
Result: upper level

Task: State the band of C82U A111G A120C C150A C169U U176C
Result: upper level

Task: State the band of C82U A111C A145C C150U C169A U176A
Result: upper level

Task: State the band of C82G A111U A120U A145C C150A C169U
Result: lower level
